experiment: Single-dose oral pharmacokinetics in rat; assay type: in vivo; details: male, Sprague-Dawley, plasma, 30 mg/kg
property: Tmax (h)
Kindly answer with a numeric value in h, unit omitted.

For the compound shown here, CCCNS(=O)(=O)Nc1ncnc(OCCOc2ncc(Br)cn2)c1-c1ccc(Br)cc1 [macitentan] , give the reported Tmax.
16

###

test: Plasma exposure in the 8-day mechanistic follow-up study in male rats; format: in vivo, Sprague-Dawley rat; conditions: male, Sprague-Dawley, rat, plasma, oral, 15 mg/kg
property: AUC (ng·h/mL)
Kindly answer with a numeric value in ng·h/mL, unit omitted.

For the molecule shown here, CCCNS(=O)(=O)Nc1ncnc(OCCOc2ncc(Br)cn2)c1-c1ccc(Br)cc1 [macitentan] , give the reported AUC.
20300

###

experiment: Single-dose intravenous pharmacokinetics in dog; format: in vivo, Beagle dog; settings: male, Beagle, plasma, 0.3 mg/kg
property: AUC (ng·h/mL)
Kindly answer with a numeric value in ng·h/mL, unit omitted.

For the molecule shown here, "CCCNS(=O)(=O)Nc1ncnc(OCCOc2ncc(Br)cn2)c1-c1ccc(Br)cc1" , give the reported AUC.
910

###

test: Single-dose intravenous pharmacokinetics in rat; type: in vivo, Sprague-Dawley rat; conditions: male, Sprague-Dawley, plasma, iv, 0.1 mg/kg
property: half-life (h)
Kindly answer with a numeric value in h, unit omitted.

For the compound shown here, CCCNS(=O)(=O)Nc1ncnc(OCCOc2ncc(Br)cn2)c1-c1ccc(Br)cc1 [macitentan] , give the reported half-life.
3.8

###

test: Single-dose intravenous pharmacokinetics in dog; assay type: in vivo, Beagle dog; details: male, Beagle, plasma, 0.1 mg/kg
property: half-life

For the compound shown here, CCCNS(=O)(=O)Nc1ncnc(OCCOc2ncc(Br)cn2)c1-c1ccc(Br)cc1 [macitentan] , give the reported half-life.
3.9 h

###

assay: Single-dose oral pharmacokinetics in rat; format: in vivo; conditions: female, Sprague-Dawley, plasma, 3 mg/kg
property: AUC (ng·h/mL)
Kindly answer with a numeric value in ng·h/mL, unit omitted.

For the molecule shown here, "CCCNS(=O)(=O)Nc1ncnc(OCCOc2ncc(Br)cn2)c1-c1ccc(Br)cc1" , give the reported AUC.
18400

###

assay: Single-dose intravenous pharmacokinetics in rat; format: in vivo, Sprague-Dawley rat; details: male, Sprague-Dawley, plasma, iv, 0.3 mg/kg
property: half-life (h)
Kindly answer with a numeric value in h, unit omitted.

For the compound shown here, "CCCNS(=O)(=O)Nc1ncnc(OCCOc2ncc(Br)cn2)c1-c1ccc(Br)cc1" , give the reported half-life.
1.9

###

assay: Plasma exposure in the 8-day mechanistic follow-up study in male rats; type: in vivo, Sprague-Dawley rat; details: male, Sprague-Dawley, rat, plasma, oral, 50 mg/kg
property: AUC (ng·h/mL)
Kindly answer with a numeric value in ng·h/mL, unit omitted.

For the molecule shown here, "CCCNS(=O)(=O)Nc1ncnc(OCCOc2ncc(Br)cn2)c1-c1ccc(Br)cc1" , give the reported AUC.
26800

###

assay: Single-dose intravenous pharmacokinetics in rat; type: in vivo, Sprague-Dawley rat; conditions: male, Sprague-Dawley, plasma, iv, 0.1 mg/kg
property: AUC (ng·h/mL)
Kindly answer with a numeric value in ng·h/mL, unit omitted.

For the molecule shown here, "CCCNS(=O)(=O)Nc1ncnc(OCCOc2ncc(Br)cn2)c1-c1ccc(Br)cc1" , give the reported AUC.
270

###

test: Single-dose oral pharmacokinetics in dog; format: in vivo; details: male, Beagle, plasma, 10 mg/kg
property: AUC (ng·h/mL)
Kindly answer with a numeric value in ng·h/mL, unit omitted.

For the compound shown here, "CCCNS(=O)(=O)Nc1ncnc(OCCOc2ncc(Br)cn2)c1-c1ccc(Br)cc1" , give the reported AUC.
27500

###

test: Single-dose intravenous pharmacokinetics in rat; type: in vivo, Sprague-Dawley rat; conditions: female, Sprague-Dawley, plasma, iv, 0.3 mg/kg
property: Vd (L/kg)
Kindly answer with a numeric value in L/kg, unit omitted.

For the compound shown here, CCCNS(=O)(=O)Nc1ncnc(OCCOc2ncc(Br)cn2)c1-c1ccc(Br)cc1 [macitentan] , give the reported Vd.
1.4

###

assay: Single-dose oral pharmacokinetics in rat; format: in vivo; conditions: male, Sprague-Dawley, plasma, 3 mg/kg
property: Cmax (ng/mL)
Kindly answer with a numeric value in ng/mL, unit omitted.

For the compound shown here, "CCCNS(=O)(=O)Nc1ncnc(OCCOc2ncc(Br)cn2)c1-c1ccc(Br)cc1" , give the reported Cmax.
380

###

assay: Single-dose oral pharmacokinetics in rat; assay type: in vivo; conditions: female, Sprague-Dawley, plasma, 3 mg/kg
property: bioavailability (%)
Kindly answer with a numeric value in %, unit omitted.

For the molecule shown here, "CCCNS(=O)(=O)Nc1ncnc(OCCOc2ncc(Br)cn2)c1-c1ccc(Br)cc1" , give the reported bioavailability.
62

###

target: human pregnane X receptor (Homo sapiens, UniProt O75469); experiment: PXR reporter-gene assay in green monkey kidney CV-1 cells
Sequence (O75469 whole entry): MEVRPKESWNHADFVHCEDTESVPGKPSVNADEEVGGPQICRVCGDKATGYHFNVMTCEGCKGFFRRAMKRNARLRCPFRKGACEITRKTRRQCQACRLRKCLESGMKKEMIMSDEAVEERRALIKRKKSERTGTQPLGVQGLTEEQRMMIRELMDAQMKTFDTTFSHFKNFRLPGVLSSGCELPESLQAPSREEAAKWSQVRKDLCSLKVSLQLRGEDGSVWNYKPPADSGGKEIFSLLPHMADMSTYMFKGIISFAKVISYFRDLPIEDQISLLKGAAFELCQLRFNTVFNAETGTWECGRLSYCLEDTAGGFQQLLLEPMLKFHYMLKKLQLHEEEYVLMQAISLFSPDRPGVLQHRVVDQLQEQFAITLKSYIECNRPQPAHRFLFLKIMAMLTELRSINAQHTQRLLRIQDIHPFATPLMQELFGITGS
property: EC50 (µM)
Kindly answer with a numeric value in µM, unit omitted.

Give recorded EC50 with human pregnane X receptor (Homo sapiens, UniProt O75469) for the following molecule: "CCCNS(=O)(=O)Nc1ncnc(OCCOc2ncc(Br)cn2)c1-c1ccc(Br)cc1"
1.2

###

assay: Single-dose intravenous pharmacokinetics in rat; assay type: in vivo, Sprague-Dawley rat; details: male, Sprague-Dawley, plasma, iv, 0.3 mg/kg
property: AUC (ng·h/mL)
Kindly answer with a numeric value in ng·h/mL, unit omitted.

For the molecule shown here, "CCCNS(=O)(=O)Nc1ncnc(OCCOc2ncc(Br)cn2)c1-c1ccc(Br)cc1" , give the reported AUC.
610

###

experiment: Single-dose intravenous pharmacokinetics in dog; type: in vivo, Beagle dog; conditions: male, Beagle, plasma, 0.1 mg/kg
property: Vd (L/kg)
Kindly answer with a numeric value in L/kg, unit omitted.

For the molecule shown here, "CCCNS(=O)(=O)Nc1ncnc(OCCOc2ncc(Br)cn2)c1-c1ccc(Br)cc1" , give the reported Vd.
1.2

###

experiment: Single-dose oral pharmacokinetics in rat; assay type: in vivo; conditions: male, Sprague-Dawley, plasma, 30 mg/kg
property: Cmax (µg/mL)
Kindly answer with a numeric value in µg/mL, unit omitted.

For the molecule shown here, "CCCNS(=O)(=O)Nc1ncnc(OCCOc2ncc(Br)cn2)c1-c1ccc(Br)cc1" , give the reported Cmax.
7.3

###

experiment: Single-dose intravenous pharmacokinetics in rat; type: in vivo, Sprague-Dawley rat; conditions: female, Sprague-Dawley, plasma, iv, 0.3 mg/kg
property: half-life
Write the numeric value and append its unit.

For the compound shown here, CCCNS(=O)(=O)Nc1ncnc(OCCOc2ncc(Br)cn2)c1-c1ccc(Br)cc1 [macitentan] , give the reported half-life.
8.9 h

###

experiment: Single-dose intravenous pharmacokinetics in dog; format: in vivo, Beagle dog; details: male, beagle, plasma
property: half-life

For the compound shown here, "CCCNS(=O)(=O)Nc1ncnc(OCCOc2ncc(Br)cn2)c1-c1ccc(Br)cc1" , give the reported half-life.
3.9 to 4.3 h
